# Target System: ACE (from rabbit lung, EC 3.4.15.1) (Oryctolagus cuniculus, UniProt P12822)
# Sequence (P12822 34-1310): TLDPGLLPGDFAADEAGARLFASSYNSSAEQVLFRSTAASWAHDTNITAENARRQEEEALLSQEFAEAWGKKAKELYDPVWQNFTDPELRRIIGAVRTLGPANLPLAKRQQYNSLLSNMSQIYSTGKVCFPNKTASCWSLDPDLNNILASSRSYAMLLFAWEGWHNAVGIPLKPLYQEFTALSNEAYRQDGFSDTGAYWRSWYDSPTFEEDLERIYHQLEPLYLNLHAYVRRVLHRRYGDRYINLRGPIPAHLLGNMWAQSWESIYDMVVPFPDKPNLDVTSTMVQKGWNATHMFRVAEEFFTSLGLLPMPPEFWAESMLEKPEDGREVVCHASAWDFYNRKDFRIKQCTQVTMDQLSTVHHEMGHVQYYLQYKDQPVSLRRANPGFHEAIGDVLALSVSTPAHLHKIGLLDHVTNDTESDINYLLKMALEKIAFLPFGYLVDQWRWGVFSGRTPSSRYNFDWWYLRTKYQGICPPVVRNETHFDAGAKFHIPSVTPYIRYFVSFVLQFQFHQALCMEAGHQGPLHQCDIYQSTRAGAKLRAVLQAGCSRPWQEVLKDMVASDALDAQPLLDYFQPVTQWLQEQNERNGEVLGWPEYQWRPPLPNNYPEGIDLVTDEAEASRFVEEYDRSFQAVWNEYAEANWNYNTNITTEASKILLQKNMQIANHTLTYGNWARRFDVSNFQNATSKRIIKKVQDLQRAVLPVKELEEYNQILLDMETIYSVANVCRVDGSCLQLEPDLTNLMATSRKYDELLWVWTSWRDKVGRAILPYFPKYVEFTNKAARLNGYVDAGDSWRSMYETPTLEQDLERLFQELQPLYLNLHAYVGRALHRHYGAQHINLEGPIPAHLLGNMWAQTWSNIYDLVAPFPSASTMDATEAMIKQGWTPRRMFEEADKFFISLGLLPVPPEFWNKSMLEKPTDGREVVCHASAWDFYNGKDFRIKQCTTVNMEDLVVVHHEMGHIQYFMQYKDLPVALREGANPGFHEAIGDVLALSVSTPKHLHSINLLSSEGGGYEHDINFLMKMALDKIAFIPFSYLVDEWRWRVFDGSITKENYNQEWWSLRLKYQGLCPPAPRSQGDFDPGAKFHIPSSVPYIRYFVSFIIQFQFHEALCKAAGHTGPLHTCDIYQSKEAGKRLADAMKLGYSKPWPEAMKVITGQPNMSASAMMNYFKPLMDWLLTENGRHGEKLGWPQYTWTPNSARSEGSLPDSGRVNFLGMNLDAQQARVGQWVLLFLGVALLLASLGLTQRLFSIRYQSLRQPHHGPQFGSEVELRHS
Where a SMILES comes first, the peptide text is derived from it. [ ]: non-standard residue; d: D form. Hyp = O=C(O)[C@@H]1C[C@@H](O)CN1
Measured Endpoint: pIC50
Note: pIC50 values are expressed as the negative base-10 logarithm of concentration in M.

# input Which pIC50 is reported for this compound? C[C@H](NC(=O)CNC(=O)[C@@H]1C[C@@H](O)CN1)C(=O)N[C@@H](CCCNC(=N)N)C(=O)O [Hyp-GAR, Hydroxyproline-Gly-Ala-Arg] (H-[Hyp]GAR-OH)
# output 4.91

# input Which pIC50 is reported for this compound? C[C@H](NC(=O)CNC(=O)[C@@H]1C[C@@H](O)CN1C(=O)[C@H](C)NC(=O)CN)C(=O)N[C@@H](CCCNC(=N)N)C(=O)O [GA-Hyp-GAR, Gly-Ala-hydroxyproline-Gly-Ala-Arg] (H-GA[Hyp]GAR-OH)
# output 5.40
